Compiled record: IC50 values for Tyrosine-protein phosphatase non-receptor type 1 (Homo sapiens) across several sources.
The response must be a number in µM with no trailing unit.

Any idea what IC50 came out for CC(C)(C)OC(=O)N[C@@H](Cc1ccc(C2CC(=O)NS2(=O)=O)cc1)C(N)=O (stereo partly drawn) on Tyrosine-protein phosphatase non-receptor type 1 (Homo sapiens)?
70

Checklist item: IC50 tested on Tyrosine-protein phosphatase non-receptor type 1 (Homo sapiens), entry "CNC(=O)[C@@H]1Cc2ccc(NS(=O)(=O)O)cc2CN1C(=O)CCc1cccc(Cl)c1" , value?
101

Can you look up IC50 on Tyrosine-protein phosphatase non-receptor type 1 (Homo sapiens) for "Cc1ccc(S(=O)(=O)Oc2ccc(/C=C3\SC(=O)NC3=O)c(OCc3ccc(NC(=O)c4cccc(C(F)(F)F)c4)cc3)c2)cc1" ?
11
